Reference for the values: ChEMBL document CHEMBL1124386

Test system: Thyroid hormone receptor (Rattus norvegicus)
Test: Binding affinity to thyroid hormone receptor, relative to 3,5,3' triiodothyronine receptor, in isolated nuclei of heart
Observation Type: Relative IC50

1) N[C@@H](Cc1cc(I)c(Oc2ccc(O)c(Cc3ccc(O)cn3)c2)c(I)c1)C(=O)O :: 15

[P] N[C@@H](Cc1cc(I)c(Oc2ccc(O)c(Cc3ccncc3)c2)c(I)c1)C(=O)O
[Q] N[C@@H](Cc1cc(I)c(Oc2ccc(O)c(Cn3ccc(=O)cc3)c2)c(I)c1)C(=O)O
I'd appreciate it if you could identify which of P and Q has the greater Relative IC50. Which one? Tell me its label. P

----------
Listed molecules paired with reported Relative ID50
Tested on: Rattus norvegicus
Experiment: In vivo binding affinity for 3,5,3' triiodothyronine receptor of liver nuclei 1 hour after intravenous administration
Type: organism-based
Reply briefly: the number, and no unit.

Below, 3 molecules whose answers are already recorded.
1. N[C@@H](Cc1cc(I)c(Oc2ccc(O)c(Cn3ccc(=O)cc3)c2)c(I)c1)C(=O)O :: 2.7
2. N[C@@H](Cc1cc(I)c(Oc2ccc(O)c(Cc3ccncc3)c2)c(I)c1)C(=O)O :: 7
3. N[C@@H](Cc1cc(Cl)c(Oc2ccc(O)c(Cc3ccc(O)nc3)c2)c(Cl)c1)C(=O)O :: 13

Now consider the entry below.
# input molecule: `N[C@@H](Cc1cc(I)c(Oc2ccc(O)c(Cc3ccc(O)cn3)c2)c(I)c1)C(=O)O` ; wanted: its Relative ID50 31

----------
Species: Rattus norvegicus
Assay: Selectivity ratio of ID50 in liver and heart
Observation Type: Ratio

Please review the following examples before continuing.
1) N[C@@H](Cc1cc(I)c(Oc2ccc(O)c(Cc3ccc(O)cn3)c2)c(I)c1)C(=O)O :: 12.4
2) N[C@@H](Cc1cc(I)c(Oc2ccc(O)c(Cc3ccncc3)c2)c(I)c1)C(=O)O :: 4.38
3) N[C@@H](Cc1cc(I)c(Oc2ccc(O)c(Cc3ccccn3)c2)c(I)c1)C(=O)O :: 4.44
4) N[C@@H](Cc1cc(I)c(Oc2ccc(O)c(Cc3ccc(O)c(F)c3)c2)c(I)c1)C(=O)O :: 1.62

[1] N[C@@H](Cc1cc(I)c(Oc2ccc(O)c(Cc3ccc([N+](=O)[O-])cc3)c2)c(I)c1)C(=O)O
[2] N[C@@H](Cc1cc(I)c(Oc2ccc(O)c(Cc3ccc(O)nn3)c2)c(I)c1)C(=O)O
[3] Cc1cc(Cc2cc(Oc3c(I)cc(C[C@H](N)C(=O)O)cc3I)ccc2O)ccc1O
[4] Nc1ccc(Cc2cc(Oc3c(I)cc(C[C@H](N)C(=O)O)cc3I)ccc2O)cc1
Arrange these 4 molecules in increasing order of Ratio. In your reply, arrange the labels in the requested order. 3, 4, 1, 2
(3: 3.5, 4: 9.13, 1: 13.8, 2: 95)

----------
Tested on: Rattus norvegicus
Experiment: Potency for induction of GPDH (mitochondrial cytochrome C3-phosphoglycerate oxidoreductase) was measured 48 hours after single intramuscular injection relative to T3 in heart
Type: functional
Observation Type: Relative ED50

Examples with answers:
1. N[C@@H](Cc1cc(Br)c(Oc2ccc(O)c(Cc3ccc(O)nn3)c2)c(Br)c1)C(=O)O :: <0.1
2. N[C@@H](Cc1cc(I)c(Oc2ccc(O)c(Cc3ccc(O)cc3)c2)c(I)c1)C(=O)O :: <0.1

Now consider the entry below.
Lookup: Relative ED50 / Rattus norvegicus / `N[C@@H](Cc1cc(I)c(Oc2ccc(O)c(Cc3ccc(O)nn3)c2)c(I)c1)C(=O)O` <0.1

----------
Assay: Binding affinity to the thyroid hormone receptor was determined in vitro in isolated nuclei of rat liver relative to 3,5,3' triiodothyronine
Format: tissue-based
Observation Type: Relative IC50

Below, 5 compounds whose answers are already recorded.
1) N[C@@H](Cc1cc(I)c(Oc2ccc(O)c(Cc3ccc(F)cc3)c2)c(I)c1)C(=O)O :: 60
2) Nc1ccc(Cc2cc(Oc3c(I)cc(C[C@H](N)C(=O)O)cc3I)ccc2O)cc1 :: 0.63
3) N[C@@H](Cc1cc(I)c(Oc2ccc(O)c(Cc3ccc(O)cn3)c2)c(I)c1)C(=O)O :: 20
4) Cc1cc(Cc2cc(Oc3c(I)cc(C[C@H](N)C(=O)O)cc3I)ccc2O)ccc1O :: 7.4
5) O=C(O)Cc1cc(Br)c(Oc2ccc(O)c(Cc3ccc(O)nc3)c2)c(Br)c1 :: 3

[A] N[C@@H](Cc1cc(I)c(Oc2ccc(O)c(Cc3ccc(O)nc3)c2)c(I)c1)C(=O)O
[B] N[C@@H](Cc1cc(I)c(Oc2ccc(O)c(Cc3ccc([N+](=O)[O-])cc3)c2)c(I)c1)C(=O)O
Lab log: flag the item ( A or B ) with the smaller Relative IC50 figure. Label of pick, please. A
(A: 2.3, B: 20)

----------
Property: Relative ID50; scope: individual molecules
System: Rattus norvegicus
Assay: In vivo binding affinity for 3,5,3' triiodothyronine receptor of liver nuclei 1 hour after intravenous administration
Assay type: organism-based
Output spec: single numeric token, no unit.

1) Nc1ccc(Cc2cc(Oc3c(I)cc(C[C@H](N)C(=O)O)cc3I)ccc2O)cc1 :: 0.21
2) Cc1cc(Cc2cc(Oc3c(I)cc(C[C@H](N)C(=O)O)cc3I)ccc2O)ccc1O :: 0.35

Item `N[C@@H](Cc1cc(I)c(Oc2ccc(O)c(Cc3ccccn3)c2)c(I)c1)C(=O)O` has what recorded Relative ID50? 2.4

----------
Assay: Binding affinity to the thyroid hormone receptor was determined in vitro in isolated nuclei of rat liver relative to 3,5,3' triiodothyronine
Format: tissue-based
Observation Type: Relative IC50

Check out these entries, answers already filled in.
1. Cn1cc(Cc2cc(Oc3c(I)cc(C[C@H](N)C(=O)O)cc3I)ccc2O)ccc1=O :: 0.76
2. N[C@@H](Cc1cc(I)c(Oc2ccc(O)c(Cc3ccncc3)c2)c(I)c1)C(=O)O :: 8.5
3. CC(C)c1cc(Cc2cc(Oc3c(I)cc(C[C@H](N)C(=O)O)cc3I)ccc2O)ccc1O :: 0.67
4. N[C@@H](Cc1cc(I)c(Oc2ccc(O)c(Cn3ccc(=O)cc3)c2)c(I)c1)C(=O)O :: 0.25
5. N[C@@H](Cc1cc(Br)c(Sc2ccc(O)c(Cc3ccc(O)nc3)c2)c(Br)c1)C(=O)O :: 9.8

[A] N[C@@H](Cc1cc(I)c(Oc2ccc(O)c(Cc3ccccn3)c2)c(I)c1)C(=O)O
[B] N#Cc1ccc(Cc2cc(Oc3c(I)cc(C[C@H](N)C(=O)O)cc3I)ccc2O)cc1
Param metric = Relative IC50; output whichever of A , B has the minimum value. Provide the label of your selected option as the answer. A
(A: 0.96, B: 13)

----------
Assay: Binding affinity to the thyroid hormone receptor was determined in vitro in isolated nuclei of rat liver relative to 3,5,3' triiodothyronine
Type: tissue-based
Observation Type: Relative IC50

1. N[C@@H](Cc1cc(Br)c(Oc2ccc(O)c(Cc3ccc(O)nn3)c2)c(Br)c1)C(=O)O :: 0.9

[a] N[C@@H](Cc1cc(I)c(Oc2ccc(O)c(Cc3ccc(O)nn3)c2)c(I)c1)C(=O)O
[b] N[C@@H](Cc1cc(I)c(Sc2ccc(O)c(Cc3ccc(O)nc3)c2)c(I)c1)C(=O)O
[c] N[C@@H](Cc1cc(I)c(Oc2ccc(O)c(Cc3ccc(O)c(F)c3)c2)c(I)c1)C(=O)O
Rank entries according to their Relative IC50, from the largest number down. Provide your answer as the labels ordered per the instruction. c, b, a
